Catalogue of compounds with associated inhibition
# Target Or Test System: Gag-Pol polyprotein (Human immunodeficiency virus type 1 group M subtype B (isolate HXB2))
# Procedure Text: RNase H inhibition, HIV 1 Gag Pol polyprotein, FRET biochemical assay, screening (AID 372)
# Recorded Conditions: HIV-1 RT RNase H, FRET RNA/DNA substrate fluorescence; at 10 µM; active compounds read high
In all, about 100,000 compounds went through this assay and about 770 (0.77%) were called active. The full list was thinned out, with actives kept by preference.

Compound: COc1ccc(C(=O)NC(=S)Nc2ccc(-c3nc4cc(Cl)ccc4o3)cc2)cc1[N+](=O)[O-]
inhibition (%): 53

Compound: Cc1ccc(C(=O)OCC(=O)c2ccc(Br)cc2)cc1[N+](=O)[O-]
inhibition (%): 0

Compound: COc1ccc(C(=O)NC(=S)Nc2cccc(-c3nc4cc(C)ccc4o3)c2)cc1[N+](=O)[O-]
inhibition (%): 23

Compound: O=C(O)/C=C\C(=O)N/N=C/c1ccccc1
inhibition (%): 4

Compound: CCOC(=O)c1ccc2c(c1)C1C=CCC1C(c1ccc(Br)cc1)N2 (stereo unspecified)
inhibition (%): 31

Compound: COc1ccc(-c2nc3ccc(Cc4ccc5nc(-c6ccc(OC)cc6)c(-c6ccc(OC)cc6)nc5c4)cc3nc2-c2ccc(OC)cc2)cc1
inhibition (%): 55

Compound: COc1ccc(C(=O)NC(=S)Nc2ccc(-c3nc4cc(C)ccc4o3)cc2)cc1Br
inhibition (%): 21

Compound: COc1ccc(CCN2C(=O)/C(=C\c3cccc4ccccc34)SC2=S)cc1OC
inhibition (%): 9

Compound: O=C(CSc1nc2ccccc2[nH]1)Nc1cc(Cl)ccc1Cl
inhibition (%): 4

Compound: COc1ccc(Cc2ccc(OC)cc2)cc1
inhibition (%): 5

Compound: COc1ccc(C(=O)NC(=S)Nc2cccc(-c3nc4cc(Cl)ccc4o3)c2)cc1[N+](=O)[O-]
inhibition (%): 23

Compound: CN=C(Nc1ccc2c(c1)OCO2)SC1CC(=O)N(c2ccc(Cl)cc2)C1=O (stereo unspecified)
inhibition (%): 12

Compound: O=C1S/C(=C/c2cccc(Br)c2)C(=O)N1c1ccccc1
inhibition (%): 12

Compound: COc1ccc(C(=O)NC(=S)Nc2ccc(-c3nc4ccccc4o3)cc2)cc1Br
inhibition (%): 20

Compound: CN(C(=O)c1ccc(Cl)cc1Cl)c1ccccc1
inhibition (%): 1

Compound: COc1ccc(C(=O)NC(=S)Nc2ccc(-c3nc4ccc(C)cc4o3)cc2)cc1[N+](=O)[O-]
inhibition (%): 54

Compound: Cc1n[nH]c(C)c1Sc1ccc(Br)cc1
inhibition (%): 50

Compound: O=C(Cc1ccc(Cl)cc1)Nc1ccc2oc(-c3ccc(F)cc3)nc2c1
inhibition (%): 54

Compound: Fc1ccc(/C=N/c2ncn[nH]2)cc1
inhibition (%): 6

Compound: CCOc1ccc(N2C(=O)/C(=C/c3ccc(N(CC)CC)o3)C(=O)NC2=S)cc1
inhibition (%): 21

Compound: CCc1ccc2oc(-c3ccc(NC(=S)NC(=O)c4ccc(OC)c([N+](=O)[O-])c4)cc3)nc2c1
inhibition (%): 19
